- TARGET: T1, human EphA2 (Homo sapiens, UniProt P29317)
- T1 construct: a protein of the extracellular region of each human Eph receptor fused with the SEAP protein and the His tag; made in house; host or cells: Expi293F cells (culture supernatant)
- T1 sequence (P29317 24-537 limits assumed): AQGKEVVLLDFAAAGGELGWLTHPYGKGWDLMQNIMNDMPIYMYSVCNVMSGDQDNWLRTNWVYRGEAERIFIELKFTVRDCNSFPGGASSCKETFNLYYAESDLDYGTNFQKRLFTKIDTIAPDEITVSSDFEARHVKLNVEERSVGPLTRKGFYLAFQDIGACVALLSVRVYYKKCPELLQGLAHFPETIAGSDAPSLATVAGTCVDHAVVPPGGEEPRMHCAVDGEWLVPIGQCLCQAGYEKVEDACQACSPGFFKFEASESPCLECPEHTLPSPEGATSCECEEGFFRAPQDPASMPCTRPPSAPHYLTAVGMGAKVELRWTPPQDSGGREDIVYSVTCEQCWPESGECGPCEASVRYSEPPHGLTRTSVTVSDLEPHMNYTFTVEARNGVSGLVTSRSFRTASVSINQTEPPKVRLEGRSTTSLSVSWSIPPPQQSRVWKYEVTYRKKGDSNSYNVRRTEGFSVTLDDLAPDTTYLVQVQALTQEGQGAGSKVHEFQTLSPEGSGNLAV
- ASSAY_EXPLANATION: Selectivity ELISA of humanized antibodies for human Eph receptor
- Assay type: binding
- STUDY_CONDITIONS: coated protein 1 nM
READOUT_NAME: hEphA2-SEAP-: absorbance at 450 nm, percentage with respect to hEphA4-SEAP-His as 100% (%)
Please reply with the bare figure in % and do not write the unit itself.

Query string: Give hEphA2-SEAP-: absorbance at 450 nm, percentage with respect to hEphA4-SEAP-His as 100% for the following molecule: 90 (antibody, V domains shown, constant regions without entry; synthetic humanized antibody light chain variable region sequence; synthetic humanized antibody heavy chain variable region sequence) VL: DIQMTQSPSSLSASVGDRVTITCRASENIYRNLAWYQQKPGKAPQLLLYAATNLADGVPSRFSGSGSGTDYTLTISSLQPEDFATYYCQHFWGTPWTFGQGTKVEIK VH: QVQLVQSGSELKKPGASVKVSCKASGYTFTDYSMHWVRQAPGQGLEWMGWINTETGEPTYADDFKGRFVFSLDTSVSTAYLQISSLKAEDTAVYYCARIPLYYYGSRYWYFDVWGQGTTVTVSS
Result string: 5.2

Query string: Provide measured hEphA2-SEAP-: absorbance at 450 nm, percentage with respect to hEphA4-SEAP-His as 100% value, entry: 134 (antibody, V domains shown, synthetic humanized antibody heavy chain variable region sequence; synthetic humanized antibody light chain variable region sequence) VH: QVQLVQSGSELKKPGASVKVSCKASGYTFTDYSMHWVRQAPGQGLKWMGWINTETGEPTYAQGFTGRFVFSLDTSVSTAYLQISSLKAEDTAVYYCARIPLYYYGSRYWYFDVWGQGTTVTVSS VL: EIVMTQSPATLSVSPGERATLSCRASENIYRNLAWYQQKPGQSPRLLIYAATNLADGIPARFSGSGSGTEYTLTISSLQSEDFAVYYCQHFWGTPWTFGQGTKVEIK
Result string: 5.0

Query string: Provide hEphA2-SEAP-: absorbance at 450 nm, percentage with respect to hEphA4-SEAP-His as 100% value for the following molecule: 78 (antibody, V domains shown, synthetic humanized antibody heavy chain variable region sequence; synthetic humanized antibody light chain variable region sequence) VH: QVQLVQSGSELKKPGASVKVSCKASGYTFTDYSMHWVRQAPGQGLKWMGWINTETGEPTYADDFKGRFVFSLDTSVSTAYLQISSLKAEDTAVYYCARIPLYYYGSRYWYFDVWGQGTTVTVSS VL: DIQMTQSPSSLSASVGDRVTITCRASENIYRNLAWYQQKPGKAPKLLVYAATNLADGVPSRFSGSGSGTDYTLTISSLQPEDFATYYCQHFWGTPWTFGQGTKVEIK
Result string: 4.9

Query string: Return the recorded hEphA2-SEAP-: absorbance at 450 nm, percentage with respect to hEphA4-SEAP-His as 100% value; entry: 83 (antibody, V domains shown, constant regions without entry; synthetic humanized antibody light chain variable region sequence; synthetic humanized antibody heavy chain variable region sequence) VL: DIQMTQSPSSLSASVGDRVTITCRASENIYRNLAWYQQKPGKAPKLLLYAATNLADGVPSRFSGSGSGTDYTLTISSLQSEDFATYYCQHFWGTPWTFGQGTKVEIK VH: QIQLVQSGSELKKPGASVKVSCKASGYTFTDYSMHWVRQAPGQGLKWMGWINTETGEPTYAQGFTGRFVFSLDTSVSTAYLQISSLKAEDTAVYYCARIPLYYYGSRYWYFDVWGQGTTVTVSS
Result string: 5.8
